# Procedure Text: Plasma protein binding assay (PPB), equilibrium dialysis
# Type: in vitro ADME
# Assay Context: bovine, 10% FCS in PBS, read-out: PPB 10% FCS (% fu)
Recorded Metric: fraction unbound

> print(dat)
                                   compound   recorded.metric  quantitative.result
1  COc1c(OCC2(N(C)C)COC2)nc(-c2noc3c2CCC[C@@]32CCCc3sc(N)c(C#N)c32)nc1O[C@@H](C)[C@@H]1CCCN1C [II-25]  fraction unbound                 0.48

(P) C[C@H](Oc1cc(Oc2cncnc2)nc(-c2onc3c2CCC[C@@]32CCCc3sc(N)c(C#N)c32)n1)[C@@H]1CCCN1C [Example I-3]
(Q) C[C@H](Oc1cc(Nc2ncccn2)nc(-c2noc3c2CCC[C@@]32CCCc3sc(N)c(C#N)c32)n1)[C@@H]1CCCN1C [II-17]
// query Select the item whose fraction unbound value is smaller, choosing between P and Q . Lab note: record the label of whichever item you select.
// result Q
(Q: 0.28, P: 0.57)

====

# Procedure Text: Plasma protein binding assay (PPB), equilibrium dialysis
# Format: in vitro ADME
# Assay Context: bovine, 10% FCS in PBS, read-out: PPB 10% FCS (% fu)
Recorded Metric: fraction unbound

> print(dat)
                                   molecule  quantitative.result
1  C[C@H](Oc1cc(Nc2ccccn2)nc(-c2noc3c2CCC[C@@]32CCCc3sc(N)c(C#N)c32)n1)[C@@H]1CCCN1C                 0.37

(1) C[C@H](Oc1cc(N(C)C)nc(-c2noc3c2CCC[C@@]32CCCc3sc(N)c(C#N)c32)n1)[C@@H]1CCCN1C
(2) C[C@H](Oc1cc(Nc2cccnn2)nc(-c2noc3c2CCC[C@@]32CCCc3sc(N)c(C#N)c32)n1)[C@@H]1CCCN1C
// query Pick one: 1 or 2 . Which has the bigger fraction unbound number? Lab note: record the label of whichever item you select.
// result 2
(2: 0.61, 1: 0.08)

====

# Tested On: KRAS G12D Ba/F3 (Homo sapiens, UniProt P01116, G12D, cells depend on it)
# Sequence (P01116 whole entry G12D): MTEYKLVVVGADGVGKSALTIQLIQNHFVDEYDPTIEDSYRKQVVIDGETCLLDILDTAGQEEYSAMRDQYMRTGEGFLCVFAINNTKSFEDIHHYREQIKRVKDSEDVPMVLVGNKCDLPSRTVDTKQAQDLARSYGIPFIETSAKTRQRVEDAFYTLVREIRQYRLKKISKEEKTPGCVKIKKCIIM
# Procedure Text: Ba/F3 proliferation assay, KRAS G12D
# Assay type: cell-based
# Assay Context: 72 h, AlamarBlue, read-out: KRAS G12D Ba/F3 IC50
Recorded Metric: GI50 (µM)

Use the examples below as a reference point.
> print(dat)
                                   compound  quantitative.result
1  C[C@H](Oc1cc(Sc2ncccn2)nc(-c2onc3c2CCC[C@@]32CCCc3sc(N)c(C#N)c32)n1)[C@@H]1CCCN1C [Example I-7]                0.097
2  C[C@H](Oc1cc(N(C)CCN(C)C)nc(-c2noc3c2CCC[C@@]32CCCc3sc(N)c(C#N)c32)n1)[C@@H]1CCCN1C [II-20]                0.304
3  C[C@H](Oc1cc(Nc2ccccn2)nc(-c2noc3c2CCC[C@@]32CCCc3sc(N)c(C#N)c32)n1)[C@@H]1CCCN1C [II-16]                0.043

(a) C[C@H](Oc1cc(O[C@H]2CN(C)C(C)(C)C2)nc(-c2noc3c2CCC[C@@]32CCCc3sc(N)c(C#N)c32)n1)[C@@H]1CCCN1C [II-19]
(b) C[C@H](Oc1cc(N[C@H]2CCOC2)nc(-c2onc3c2CCC[C@@]32CCCc3sc(N)c(C#N)c32)n1)[C@@H]1CCCN1C [Example I-4]
// query Select the item whose GI50 value is smaller, choosing between a and b . Lab note: record the label of whichever item you select.
// result b
(b: 0.041 µM, a: 0.091 µM)

All figures here come from patent US20250129095A1.
